Reference source for all entries: paper PMC9556845

Recorded IC50 by entry
Target: PTP1B (Homo sapiens, UniProt P18031)
Sequence (P18031 whole entry): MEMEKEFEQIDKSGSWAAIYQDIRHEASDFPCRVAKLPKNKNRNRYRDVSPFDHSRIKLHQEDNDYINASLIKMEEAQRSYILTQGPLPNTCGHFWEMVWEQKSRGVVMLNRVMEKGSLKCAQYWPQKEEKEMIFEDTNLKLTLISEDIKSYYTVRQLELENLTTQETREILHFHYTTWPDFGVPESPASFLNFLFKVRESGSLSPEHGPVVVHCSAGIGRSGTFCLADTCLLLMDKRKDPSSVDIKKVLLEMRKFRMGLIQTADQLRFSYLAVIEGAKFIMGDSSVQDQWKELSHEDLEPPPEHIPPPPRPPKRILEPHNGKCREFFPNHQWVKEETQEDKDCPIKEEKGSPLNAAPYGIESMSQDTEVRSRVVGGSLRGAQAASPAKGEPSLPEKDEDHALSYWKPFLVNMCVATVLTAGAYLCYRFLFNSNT
Assay: Inhibition of protein tyrosine phosphatase (PTPs) assay, pNPP substrate: PTP1B
Type: biochemical
Conditions: pNPP substrate, pH 6.5, 37°C 60 min, absorbance 405 nm, three independent experiments; read-out: IC50 PTP1B (converted)
Just the number in µM, nothing appended.

Observe how each entry below is paired with its result.
{"columns": ["compound", "study-target", "parameter", "u", "number"],
 "data": [
  ["COc1cc(O)c2c(c1)C1=C[C@@H](O)[C@@H](O)C[C@]1(C)OC2=O [Compound 11, 5′-epialtenuene]", "PTP1B (Homo sapiens, UniProt P18031)", "IC50", "µM", 187],
  ["COc1cc(O)cc(C2=C(C)C[C@@H](O)C2=O)c1 [Compound 14, (+)-nigrosporaol A]", "PTP1B (Homo sapiens, UniProt P18031)", "IC50", "µM", 383],
  ["COc1cc(O)c2c(c1)C1=CC(O)C(O)CC1(C)OC2=O (stereo not shown) [Compound 12, 4′-epialtenuene]", "PTP1B (Homo sapiens, UniProt P18031)", "IC50", "µM", 25.5]
]}

Now for a further compound.
Field IC50 (entry COc1cc(O)c2c(c1)C1=C[C@H](O)[C@@H](O)C[C@]1(C)OC2=O [Compound 10, 5-hydroxyepialtenuene] ) reads 156
